Recorded pIC50 by entry
- TARGET_OF_ASSAY: Undecaprenyl-phosphate alpha-N-acetylglucosaminyl 1-phosphate transferase (Thermotoga maritima (strain ATCC 43589 / MSB8 / DSM 3109 / JCM 10099), UniProt Q9X1N5)
- Sequence (Q9X1N5 whole entry): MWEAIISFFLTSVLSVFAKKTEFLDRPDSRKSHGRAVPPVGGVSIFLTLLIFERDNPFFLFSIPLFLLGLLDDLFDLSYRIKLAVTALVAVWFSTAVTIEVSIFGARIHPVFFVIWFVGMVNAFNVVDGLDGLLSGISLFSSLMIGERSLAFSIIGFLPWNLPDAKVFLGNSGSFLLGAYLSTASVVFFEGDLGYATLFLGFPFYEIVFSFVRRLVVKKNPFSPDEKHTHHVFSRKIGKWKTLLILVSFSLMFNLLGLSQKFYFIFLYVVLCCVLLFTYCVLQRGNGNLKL
- PROTOCOL_NOTES: Inhibition of Thermotoga maritima WecA using radiolabeled UDP-[14C]GlcNAc as substrate after 30 mins
pIC50: −log10 of the molar value.
READOUT_LABEL: pIC50

COMPOUND | READOUT_LABEL | NUMERIC_READOUT
CC(C)C[C@@H](NC(=O)[C@@H](NC(=O)N[C@H](C(=O)O)C(C)C)[C@@H]1CCN=C(N)N1)C(=O)NCCCN[C@H](C(=O)O)[C@H](O[C@@H]1O[C@H](CN)[C@@H](O)[C@H]1O)[C@H]1O[C@@H](n2ccc(=O)[nH]c2=O)[C@H](O)[C@@H]1O | pIC50 | 2.81
CC(C)C[C@H](NC(=O)[C@@H](NC(=O)N[C@H](C(=O)O)C(C)C)[C@@H]1CCN=C(N)N1)C(=O)NCCCN[C@H](C(=O)O)[C@H](O[C@@H]1O[C@H](CN)[C@@H](O)[C@H]1O)[C@H]1O[C@@H](n2ccc(=O)[nH]c2=O)[C@H](O)[C@@H]1O [MURAMYCIN D2] | pIC50 | 2.91
CCCCCCCCCCCCCCC[C@H](NC(=O)[C@@H](NC(=O)N[C@H](C(=O)O)C(C)C)[C@@H]1CCNC(=N)N1)C(=O)NCCCN[C@H](C(=O)O)[C@H](O[C@@H]1O[C@H](CN)[C@@H](O)[C@H]1O)[C@H]1O[C@@H](n2ccc(=O)[nH]c2=O)[C@H](O)[C@@H]1O | pIC50 | 3.01
CCCCCCCCCCCCCCC[C@@H](NC(=O)[C@@H](NC(=O)N[C@H](C(=O)O)C(C)C)[C@@H]1CCNC(=N)N1)C(=O)NCCCN[C@H](C(=O)O)[C@H](O[C@@H]1O[C@H](CN)[C@@H](O)[C@H]1O)[C@H]1O[C@@H](n2ccc(=O)[nH]c2=O)[C@H](O)[C@@H]1O | pIC50 | 2.87
